- System: NCI-H522
- assayText: NCI tumour cell line growth inhibition, 48 h
Active and inactive are the calls of the source. No stated cut-off is given here; in the data, active = GI50 up to about 1.1 µM and inactive = higher.
// allowed return values: active, inactive

CC1=CC(=O)C(C)(C2=NC(C)(C)CO2)c2ccccc21 (stereo not drawn) = inactive

# input Short answer needed: outcome of this test for C/C1=C\CC[C@@]2(C)O[C@@H]2[C@H]2OC(=O)C(C)C2C[C@H]1O (stereo partly drawn) ?
# output inactive

# input Short answer needed: outcome of this test for O=C(CC1(O)C(=O)Nc2ccc(Br)cc21)c1cccc([N+](=O)[O-])c1 (stereo not drawn) ?
# output inactive

# input Short answer needed: outcome of this test for "Cc1cc(=O)oc2c(C)c(OCCCOc3ccc4c(C)cc(=O)oc4c3C)ccc12" ?
# output inactive

# input Short answer needed: outcome of this test for "COc1ccc(-n2c3c(c4cc(O)ccc42)C(=O)c2ccccc2C3=O)cc1" ?
# output inactive

# input Short answer needed: outcome of this test for Clc1ccc2cccc3c2c1C1OC3c2ccccc21 (stereo not drawn) ?
# output inactive

# input Short answer needed: outcome of this test for CC(C)C1C(=O)N(c2c(F)c(F)c(F)c(F)c2F)C(=S)N1CC[S+]([O-])c1ccccc1 (stereo not drawn) ?
# output inactive

# input Short answer needed: outcome of this test for Cc1ccc(C2C(Cl)C(=O)N2NC(=O)c2ccc(N)cc2)cc1 (stereo not drawn) ?
# output inactive

# input Short answer needed: outcome of this test for "CCOC(=O)CCC(=O)C1c2cccc(O)c2C(=O)c2c(O)cccc21" ?
# output active

# input Short answer needed: outcome of this test for "Clc1cccc(N/N=N/c2ccc(-c3nc4ccccc4s3)cc2)c1" ?
# output inactive

----------
- System: SF-539
- assayText: NCI tumour cell line growth inhibition, 48 h
Calls of active or inactive are those of the source. Rule as the data show it: active = GI50 up to about 1.1 µM and inactive = higher.
Consider the following compounds; for each one, report its GI50.

Solved cases (2 shown):
O=c1oc2ccccc2cc1-c1nc2ccccc2c(=O)[nH]1 = > 100 µM (inactive)
CCOC(=O)CCC(=O)C1c2cccc(O)c2C(=O)c2c(O)cccc21 = 0.411 µM (active)

Hi there! I need GI50 for each item below, if you can.
1. O=c1ccc(=O)c2c(=O)c3ccccc3c(=O)c1=2
2. Cc1c2c(cc3c(=O)ccn(CCN(C)C)c13)c(=O)ccn2CCN(C)C
3. Cc1ccccc1NC(=O)C(=O)C(C#N)c1ccccc1C (stereo not drawn)
4. O=S(=O)(O)c1ccc(/N=N/c2c(O)ccc3ccccc23)cc1
5. CC12CC/C(=N/NC(N)=O)C3C1CCCC32

# output
1. 26 µM (inactive)
2. 15 µM (inactive)
3. > 100 µM (inactive)
4. > 100 µM (inactive)
5. > 100 µM (inactive)

Hi there! I need GI50 for each item below, if you can.
1. COc1ccc(/C=C/C(=O)c2sc(-c3cccnc3)nc2C)cc1
2. Cc1cc(NS(=O)(=O)c2ccc(Nc3c4ccccc4nc4ccc(C(=O)Nc5ccc(S(N)(=O)=O)cc5)cc34)cc2)no1

# output
["21.1 µM (inactive)", "> 100 µM (inactive)"]

Hi there! I need GI50 for each item below, if you can.
1. O=[N+]([O-])C(=C(N1CCOCC1)N1CCOCC1)/C(Cl)=C(\Cl)Br
2. CC(C)Cn1cnnc1NS(=O)(=O)c1cc(C(=O)NN)c(Cl)cc1S
3. CC(C)[Si]1(C(C)C)OCC2OC3(CO)C(Oc4nc(=O)ccn43)C2O[Si](C(C)C)(C(C)C)O1 (stereo not drawn)
4. CCCCc1nccc2c(C)c3[nH]c4ccccc4c3cc12
5. CCOC(=O)/C(C(=O)Nc1cccc(Cl)c1)=C(/N)N1CCCC1
6. CCOC(=O)COc1cc(-c2ccccc2)nc2cc(F)ccc12
7. COC(=O)C[C@H](COCc1ccccc1)NC(=O)C[C@H](COCc1ccccc1)NC(=O)C[C@H](COCc1ccccc1)NC(=O)OC(C)(C)C

# output
24.3 µM (inactive)
> 10 µM (inactive)
15 µM (inactive)
2.45 µM (inactive)
> 100 µM (inactive)
39.7 µM (inactive)
95.3 µM (inactive)

Hi there! I need GI50 for each item below, if you can.
1. O=C(/C=C/c1ccc(-c2ccccc2)cc1)NCc1ccc(C(=O)NCCc2c[nH]c3ccccc23)cc1
2. C[N+]12CCCCC1C(CN1C(=O)c3ccccc3C1=O)CCC2 (stereo not drawn)
3. CC/C(SC)=[N+](\C)[O-]
4. O=C(c1cc2ccccc2[nH]1)C(O)(c1cc2ccccc2[nH]1)c1cc2ccccc2[nH]1
5. O=C(O)[C@H](NS(=O)(=O)c1ccc2ccccc2c1)c1ccccc1

# output
43.5 µM (inactive)
> 100 µM (inactive)
> 100 µM (inactive)
129 µM (inactive)
> 100 µM (inactive)

Hi there! I need GI50 for each item below, if you can.
1. N#CCC12CC=CCC1=C(O)C(=O)c1ccc(O)cc12 (stereo not drawn)
2. Cc1nnc(SCc2nc(C#N)c(C#N)nc2CSc2nnc(C)s2)s1
3. O=C1c2ccccc2C(=O)c2nc3c(O)cccc3cc21
4. CC(Nc1cccc(Cl)c1)c1ccncc1 (stereo not drawn)
5. Cc1ccccc1/C=C/c1csnn1
6. Cc1cn(CC(=S)NCCc2c[nH]c3ccccc23)c(=O)[nH]c1=O

# output
1: > 100 µM (inactive); 2: 19.6 µM (inactive); 3: 28.4 µM (inactive); 4: > 100 µM (inactive); 5: > 100 µM (inactive); 6: > 100 µM (inactive)

Hi there! I need GI50 for each item below, if you can.
1. O=c1cc(-c2ccc(Cl)cc2)oc2cc(OCCCOc3ccc4c(=O)cc(-c5ccc(Cl)cc5)oc4c3)ccc12
2. S=c1nc(N2CCCCC2)c2cn[nH]c2[nH]1

# output
1. > 100 µM (inactive)
2. 52.6 µM (inactive)

Hi there! I need GI50 for each item below, if you can.
1. N/N=C1N=C(Cl)/C(=C/c2ccco2)N\1
2. CC(C)NC(=O)CN1CCN(C2=CC(=O)c3c(O)ccc(O)c3C2=O)CC1
3. N#CCCC1(CCC#N)CCCCCCC(CCC#N)(CCC#N)C(=O)C1=O
4. O=C1c2cccc([N+](=O)[O-])c2C(=O)N1Cc1ccccc1
5. O=C1C(Cl)=C(Cl)C(=O)N1C1C2CC3CC(C2)CC1C3 (stereo not drawn)
6. Cn1cc(C(=O)C2CCCCC2)ccc1=O
7. O=C(/C=C/c1ccc(Cl)cc1)Oc1ccc(C=C2CCC/C(=C\c3ccc(OC(=O)/C=C/c4ccc(Cl)cc4)cc3)C2=O)cc1

# output
["22.4 µM (inactive)", "16.7 µM (inactive)", "> 100 µM (inactive)", "> 100 µM (inactive)", "> 100 µM (inactive)", "> 100 µM (inactive)", "> 100 µM (inactive)"]

Hi there! I need GI50 for each item below, if you can.
1. N#CC(C#N)SCc1ccccc1
2. CC1CC(c2ccc(Cl)c(Cl)c2)=Nc2ccccc2S1 (stereo not drawn)
3. N#[N+][c-]1c(-c2ccccc2)n[nH]c1=O
4. CNc1nc(N)c(N=O)c(Nc2ccc(Br)cc2)n1
5. CC(=O)OC[C@@]12Cc3ccc(C)c(O)c3[C@]1(C)[C@@H](OC(C)=O)[C@]1(O)[C@H]([C@@H](OC(=O)c3ccccc3)[C@@H](C)[C@H]1OC(C)=O)[C@H]2OC(C)=O

# output
1. 5.19 µM (inactive)
2. > 100 µM (inactive)
3. > 100 µM (inactive)
4. > 100 µM (inactive)
5. > 50 µM (inactive)

Hi there! I need GI50 for each item below, if you can.
1. O=S1(=O)C(=C(c2ccccc2)c2ccccc2)S(=O)(=O)c2ccccc21
2. COc1cc(/C=N/c2ccc(Oc3ccc(Cl)cc3)c(Cl)c2)cc(OC)c1OC

# output
1: 27.5 µM (inactive); 2: 16.4 µM (inactive)

----------
Consider the following molecules; for each one, report its GI50.
- Tested on: HT-29
- assayText: NCI tumour cell line growth inhibition, 48 h
The source made the active and inactive calls. Cut-off read from the data, not from the text of the source: active = GI50 up to about 1.1 µM and inactive = higher.

Solved cases (4 shown):
O=C(/C=C/c1ccc(Cl)cc1)Oc1ccc(C=C2CCC/C(=C\c3ccc(OC(=O)/C=C/c4ccc(Cl)cc4)cc3)C2=O)cc1 = > 100 µM (inactive)
C=C1C(=O)OC2/C=C(\C=O)CC/C=C(\C)C(O)C[C@@H]12 (some centres not stated) = 3.08 µM (inactive)
COc1ccc2c(c1)CCc1c(CO)c(COC(=O)NC(C)C)n(C)c1-2 = 3.14 µM (inactive)
CC1(C)N=C(/C=N/O)C(C)(C)N1O = > 100 µM (inactive)

Hi there! I need GI50 for each item below, if you can.
1. Clc1cc(Cl)ncn1
2. Clc1ccc(Cl)c(SCCCN2CCNCC2)c1
3. COC(=O)C[C@H](COCc1ccccc1)NC(=O)C[C@H](COCc1ccccc1)NC(=O)C[C@H](COCc1ccccc1)NC(=O)OC(C)(C)C
4. COc1ccc2nc3cc(Cl)ccc3c(Nc3ccc(O)c(CN4CCN(C)CC4)c3)c2c1
5. O=C(O)[C@H](NS(=O)(=O)c1ccc2ccccc2c1)c1ccccc1

# output
1. > 100 µM (inactive)
2. 14.6 µM (inactive)
3. 72.8 µM (inactive)
4. 1.67 µM (inactive)
5. > 100 µM (inactive)

Hi there! I need GI50 for each item below, if you can.
1. COc1ccc(-c2cn3c(nc4ccccc43)c(/C=C/c3cccs3)n2)cc1
2. CC1CC(=O)N2CCCNC2=C1C#N (configuration not stated)

# output
1: 29.8 µM (inactive); 2: > 100 µM (inactive)

molecule CC1OC(=O)C2CC3CCCCC3C(/C=C/C3CCCC(C)N3C)C12 (configuration not stated) , GI50 observed: > 100 µM (inactive)
